Task for the reader: assign each of the following compounds its reported viability at 300 µM.
Tested on: Primary human preadipocytes
MEASUREMENT DESCRIPTION: Alamar blue (resazurin) cell viability assay on preadipocytes
Assay type: cell-based
EXPERIMENTAL PARAMETERS: 300 µM, 48h incubation, vehicle controls = 100%, read-out: Viability Preadipocytes (%)
Experimental: The following experimental setup was used for determination of adipocytolytic potential of test compounds with preadipocytes and mature adipocytes: • Primary human preadipocytes (PromoCell) were seeded in Preadipocyte Growth Medium at 45000 cells/cm^2 to allow attachment overnight. Cells were cultured at 37°C and 5% CO2 until postconfluence. […] Cell viability as surrogate for adipocytolytic potential of compounds were analysed by alamar blue assay. […] IC50-values were analysed using SigmaBlotV13.

>  <COMPOUND>
C[C@H]1[C@H](C)CC[C@]2(C(=O)O)CC[C@]3(C)C(=CC[C@@H]4[C@@]5(C)CC[C@H](O)C(C)(C)[C@@H]5CC[C@]43C)[C@H]12

>  <viability at 300 µM>
0%

$$$$
>  <COMPOUND>
C=C(C)[C@@H]1CC[C@]2(C(=O)O)CC[C@]3(C)[C@H](CC[C@@H]4[C@@]5(C)CC[C@H](O)C(C)(C)[C@@H]5CC[C@]43C)[C@@H]12 [Betulinic acid, (3β)-3-hydroxy-lup-20(29)-en-28-oic acid]

>  <viability at 300 µM>
0.45%

$$$$
>  <COMPOUND>
C[C@H](CCC(=O)O)[C@H]1CC[C@H]2[C@@H]3CC[C@@H]4C[C@H](O)CC[C@]4(C)[C@H]3C[C@H](O)[C@]12C [Deoxycholic acid, reference compound]

>  <viability at 300 µM>
26.1%

$$$$

Next up:
INPUT: Find viability at 300 µM (Primary human preadipocytes) for the entry `CC1(C)CC[C@]2(C(=O)O)CC[C@]3(C)C(=CC[C@@H]4[C@@]5(C)C[C@@H](O)[C@H](O)C(C)(C)[C@@H]5CC[C@]43C)[C@@H]2C1`
OUTPUT: 0%

---

Tested on: Primary human preadipocytes
MEASUREMENT DESCRIPTION: Alamar blue (resazurin) cell viability assay on preadipocytes
Assay type: cell-based
EXPERIMENTAL PARAMETERS: 100 µM, 48h incubation, vehicle controls = 100%, read-out: Viability Preadipocytes (%)
Task for the reader: assign each of the following compounds its reported viability at 100 µM.
One number for each entry, in %.

# example entries with known answers
>  <COMPOUND>
C[C@H]1[C@H](C)CC[C@]2(C(=O)O)CC[C@]3(C)C(=CC[C@@H]4[C@@]5(C)CC[C@H](O)C(C)(C)[C@@H]5CC[C@]43C)[C@H]12 [Ursolic acid]

>  <MEASUREMENT TARGET>
Primary human preadipocytes

>  <UNIT OF MEASURE>
%

>  <viability at 100 µM>
0

$$$$
>  <COMPOUND>
C[C@H](CCC(=O)O)[C@H]1CC[C@H]2[C@@H]3CC[C@@H]4C[C@H](O)CC[C@]4(C)[C@H]3C[C@H](O)[C@]12C [Deoxycholic acid, reference compound]

>  <MEASUREMENT TARGET>
Primary human preadipocytes

>  <UNIT OF MEASURE>
%

>  <viability at 100 µM>
98

$$$$
>  <COMPOUND>
C=C(C)[C@@H]1CC[C@]2(C(=O)O)CC[C@]3(C)[C@H](CC[C@@H]4[C@@]5(C)CC[C@H](O)C(C)(C)[C@@H]5CC[C@]43C)[C@@H]12 [Betulinic acid, (3β)-3-hydroxy-lup-20(29)-en-28-oic acid]

>  <MEASUREMENT TARGET>
Primary human preadipocytes

>  <UNIT OF MEASURE>
%

>  <viability at 100 µM>
17.5

$$$$

Next up:
INPUT: What value of viability at 100 µM has been recorded for this entry: CC1(C)CC[C@]2(C(=O)O)CC[C@]3(C)C(=CC[C@@H]4[C@@]5(C)C[C@@H](O)[C@H](O)C(C)(C)[C@@H]5CC[C@]43C)[C@@H]2C1 [Maslinic acid]
OUTPUT: 2.42

---

System: Primary human preadipocytes
MEASUREMENT DESCRIPTION: Alamar blue (resazurin) cell viability assay on preadipocytes
Type: cell-based
EXPERIMENTAL PARAMETERS: 10 µM, 48h incubation, vehicle controls = 100%, read-out: Viability Preadipocytes (%)
Task for the reader: assign each of the following compounds its reported viability at 10 µM.
One number for each entry, in %.

>  <COMPOUND>
C[C@H](CCC(=O)O)[C@H]1CC[C@H]2[C@@H]3CC[C@@H]4C[C@H](O)CC[C@]4(C)[C@H]3C[C@H](O)[C@]12C [Deoxycholic acid, reference compound]

>  <VALUE KIND>
viability at 10 µM

>  <RESULT VALUE>
96.2

$$$$

For each listed entry, give its viability at 10 µM.
1. CC1(C)CC[C@]2(C(=O)O)CC[C@]3(C)C(=CC[C@@H]4[C@@]5(C)C[C@@H](O)[C@H](O)C(C)(C)[C@@H]5CC[C@]43C)[C@@H]2C1 [Maslinic acid]
2. C=C(C)[C@@H]1CC[C@]2(C(=O)O)CC[C@]3(C)[C@H](CC[C@@H]4[C@@]5(C)CC[C@H](O)C(C)(C)[C@@H]5CC[C@]43C)[C@@H]12 [Betulinic acid, (3β)-3-hydroxy-lup-20(29)-en-28-oic acid]
3. C[C@H]1[C@H](C)CC[C@]2(C(=O)O)CC[C@]3(C)C(=CC[C@@H]4[C@@]5(C)CC[C@H](O)C(C)(C)[C@@H]5CC[C@]43C)[C@H]12 [Ursolic acid]

OUTPUT:
1. 96.4
2. 81.8
3. 74.8

---

Test system: Primary human preadipocytes
MEASUREMENT DESCRIPTION: Alamar blue (resazurin) cell viability assay on preadipocytes
Format: cell-based
EXPERIMENTAL PARAMETERS: 30 µM, 48h incubation, vehicle controls = 100%, read-out: Viability Preadipocytes (%)
VALUE KIND: viability at 30 µM (%)
Numbers only, in %.

# example entries with known answers
>  <COMPOUND>
C[C@H]1[C@H](C)CC[C@]2(C(=O)O)CC[C@]3(C)C(=CC[C@@H]4[C@@]5(C)CC[C@H](O)C(C)(C)[C@@H]5CC[C@]43C)[C@H]12

>  <UNIT OF MEASURE>
%

>  <RESULT VALUE>
12.7

$$$$
>  <COMPOUND>
C[C@H](CCC(=O)O)[C@H]1CC[C@H]2[C@@H]3CC[C@@H]4C[C@H](O)CC[C@]4(C)[C@H]3C[C@H](O)[C@]12C [Deoxycholic acid, reference compound]

>  <UNIT OF MEASURE>
%

>  <RESULT VALUE>
92.8

$$$$
>  <COMPOUND>
CC1(C)CC[C@]2(C(=O)O)CC[C@]3(C)C(=CC[C@@H]4[C@@]5(C)C[C@@H](O)[C@H](O)C(C)(C)[C@@H]5CC[C@]43C)[C@@H]2C1

>  <UNIT OF MEASURE>
%

>  <RESULT VALUE>
76

$$$$

INPUT: Find viability at 30 µM (Primary human preadipocytes) for the entry C=C(C)[C@@H]1CC[C@]2(C(=O)O)CC[C@]3(C)[C@H](CC[C@@H]4[C@@]5(C)CC[C@H](O)C(C)(C)[C@@H]5CC[C@]43C)[C@@H]12 [Betulinic acid, (3β)-3-hydroxy-lup-20(29)-en-28-oic acid]
OUTPUT: 48.5

---

Test system: mature adipocytes
MEASUREMENT DESCRIPTION: Alamar blue (resazurin) cell viability assay on mature adipocytes, surrogate for adipocytolytic potential
Type: cell-based, human
EXPERIMENTAL PARAMETERS: Homo sapiens, Adipocyte, 48 h, 100 µM, 48h incubation, vehicle controls = 100%; read-out: Viability Adipocytes (%)
VALUE KIND: viability at 100 µM

# example entries with known answers
>  <MOLECULE>
C=C(C)[C@@H]1CC[C@]2(C(=O)O)CC[C@]3(C)[C@H](CC[C@@H]4[C@@]5(C)CC[C@H](O)C(C)(C)[C@@H]5CC[C@]43C)[C@@H]12 [Betulinic acid, (3β)-3-hydroxy-lup-20(29)-en-28-oic acid]

>  <MEASUREMENT TARGET>
mature adipocytes

>  <viability at 100 µM>
32.3%

$$$$
>  <MOLECULE>
C[C@H](CCC(=O)O)[C@H]1CC[C@H]2[C@@H]3CC[C@@H]4C[C@H](O)CC[C@]4(C)[C@H]3C[C@H](O)[C@]12C [Deoxycholic acid, reference compound]

>  <MEASUREMENT TARGET>
mature adipocytes

>  <viability at 100 µM>
94.3%

$$$$
>  <MOLECULE>
C[C@H]1[C@H](C)CC[C@]2(C(=O)O)CC[C@]3(C)C(=CC[C@@H]4[C@@]5(C)CC[C@H](O)C(C)(C)[C@@H]5CC[C@]43C)[C@H]12

>  <MEASUREMENT TARGET>
mature adipocytes

>  <viability at 100 µM>
13.4%

$$$$

INPUT: Find viability at 100 µM (mature adipocytes) for the entry `CC1(C)CC[C@]2(C(=O)O)CC[C@]3(C)C(=CC[C@@H]4[C@@]5(C)C[C@@H](O)[C@H](O)C(C)(C)[C@@H]5CC[C@]43C)[C@@H]2C1`
OUTPUT: 4.86%
